Values from patent US20140220477A1

Target Under Test: mushroom tyrosinase (polyphenol oxidase) Sigma T3824 (Agaricus bisporus)
Construct: purchased Sigma T3824
Sequence (C7FF04 1-392 limits assumed): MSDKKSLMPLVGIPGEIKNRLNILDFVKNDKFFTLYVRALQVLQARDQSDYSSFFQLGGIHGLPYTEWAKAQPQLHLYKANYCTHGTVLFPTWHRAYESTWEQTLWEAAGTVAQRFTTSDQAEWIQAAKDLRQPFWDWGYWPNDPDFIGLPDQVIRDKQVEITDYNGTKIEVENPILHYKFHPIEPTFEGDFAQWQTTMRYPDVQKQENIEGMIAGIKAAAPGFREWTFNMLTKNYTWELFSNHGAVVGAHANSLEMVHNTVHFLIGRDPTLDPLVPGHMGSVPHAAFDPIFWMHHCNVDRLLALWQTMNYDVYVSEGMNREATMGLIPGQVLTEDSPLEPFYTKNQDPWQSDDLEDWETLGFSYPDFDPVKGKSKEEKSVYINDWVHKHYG
Assay Method Text: Testing of polymer production in enzymatic tyrosinase (polyphenol oxidase) reaction
Assay type: biochemical
Set-up: key: +++: Reacted within about 1 hour; ++: reacted within about 3 hours; +: reacted within about 24 hours; +/−: inconclusive results; −: no reaction
Measurement Conditions: approx. 50 mM potassium phosphate buffer pH 6.5, approx. 5 mM substrate, 100 to 10,000 units enzyme, observed over 24 hours
Measured Metric: Result (polymer production in tyrosinase reaction)

c1ccc2[nH]ccc2c1 :: −
Cl.NCCc1ccccc1 [Beta phenylethylamine HCL] :: +/−
